# assayProtocol: Pharmacokinetic profile in rats (blood 15N-nitrite levels)
# Assay type: in vivo, rat
# particulars: rat, in vivo, po, 30 mg/kg
reportedMetric: 15N-nitrite AUC0-24

{"compound": "COC1=C(OC)C(=O)C(CCCCCCCCCCO[15N+](=O)[O-])=C(C)C1=O [^15N-Compound (6)]", "measuredValue": "2469 µM·min"}
{"compound": "COC1=C(OC)C(=O)C(CCCCO[N+](=O)[O-])=C(C)C1=O [^15N-Compound (4)]", "measuredValue": "832 µM·min"}
{"compound": "COC1=C(OC)C(=O)C(CCCCCCCCCC(CO[N+](=O)[O-])O[N+](=O)[O-])=C(C)C1=O (stereo not drawn) [^15N-Compound (17)]", "measuredValue": "1666 µM·min"}
{"compound": "O=[N+]([O-])O[C@@H]1CO[C@H]2[C@@H]1OC[C@@H]2O [5-ISM^15N, reference compound]", "measuredValue": "7399 µM·min"}
{"compound": "COC1=C(OC)C(=O)C(CCCOCCCO[15N+](=O)[O-])=C(C)C1=O [^15N-Compound (14)]", "measuredValue": "694 µM·min"}
{"compound": "COC1=C(OC)C(=O)C(CCCCCCO[N+](=O)[O-])=C(C)C1=O [^15N-Compound (16)]", "measuredValue": "1559 µM·min"}
{"compound": "COC1=C(C)C(=O)C(CCCCCCO[N+](=O)[O-])=C(C)C1=O [^15N-Compound (29)]", "measuredValue": "1309 µM·min"}
{"compound": "CC1=C(C)C(=O)C(CCCCCO[N+](=O)[O-])=C(C)C1=O [^15N-Compound (1)]", "measuredValue": "1248 µM·min"}
{"compound": "CC1=C(C)C(=O)C(CCCCCCCCCCO[15N+](=O)[O-])=C(C)C1=O [^15N-Compound (5)]", "measuredValue": "1496 µM·min"}

* * *

# assayProtocol: Pharmacokinetic profile in rats (blood 15N-nitrite levels)
# Format: in vivo, rat
# particulars: rat, in vivo, po, 30 mg/kg

{"compound": "COC1=C(C)C(=O)C(CCCCCCCCO[N+](=O)[O-])=C(C)C1=O [^15N-Compound (32)]", "Cmax / nM": 1980}
{"compound": "COC1=C(OC)C(=O)C(CCCCCCCCCC(CO[N+](=O)[O-])O[N+](=O)[O-])=C(C)C1=O (centres unmarked) [^15N-Compound (17)]", "Cmax / nM": 2060}
{"compound": "CC1=C(CCCCCCO[N+](=O)[O-])C(=O)c2ccccc2C1=O [^15N-Compound (23)]", "Cmax / nM": 4050}
{"compound": "COC1=C(OC)C(=O)C(CCCCCO[N+](=O)[O-])=C(C)C1=O [^15N-Compound (2)]", "Cmax / nM": 1920}
{"compound": "COC1=C(OC)C(=O)C(CCCOCCCO[N+](=O)[O-])=C(C)C1=O [^15N-Compound (14)]", "Cmax / nM": 1520}

* * *

# assayProtocol: Pharmacokinetic profile in rats (blood 15N-nitrite levels)
# Format: in vivo, rat
# particulars: rat, in vivo, po, 30 mg/kg
reportedMetric: 15N-nitrite Tmax (h)

{"compound": "COC1=C(C)C(=O)C(C)=C(CCCCCCO[N+](=O)[O-])C1=O [^15N-Compound (28)]", "endpointUnit": "h", "measuredValue": 1}
{"compound": "CC1=C(CCCOCCCO[N+](=O)[O-])C(=O)c2ccccc2C1=O [^15N-Compound (25)]", "endpointUnit": "h", "measuredValue": 3}
{"compound": "CC1=C(C)C(=O)C(CCCCO[15N+](=O)[O-])=C(C)C1=O [^15N-Compound (3)]", "endpointUnit": "h", "measuredValue": 1}
{"compound": "CC1=C(C)C(=O)C(CCCCCCCCCCO[15N+](=O)[O-])=C(C)C1=O [^15N-Compound (5)]", "endpointUnit": "h", "measuredValue": 3}
